This collection of values is drawn from patent EP4800013A1.

- test-description: Pharmacokinetic evaluation in CD-1 mice (IV and PO)
- Format: in vivo
- conditions-used: male, mouse, plasma, IV, 1 mg/kg
assay-endpoint: MRT inf (h)
Reply numerically in h, unit not repeated.

Kindly indicate its recorded MRT inf. Item: C[C@H]1CN(c2cc(S(=O)(=O)NC3(C)CC3)cc3c2n2nc(C(F)(F)F)nc2n3-c2nnc(C(F)F)s2)C[C@H](C)N1 [Compound 065W] 5.6

Kindly indicate its recorded MRT inf. Item: CCc1nc2n(-c3nnc(C(F)F)s3)c3cc(S(=O)(=O)NC4(C)CC4)cc(N4C[C@H](C)N[C@@H](C)C4)c3n2n1 [Compound 065R] 2.3

###

- test-description: Pharmacokinetic evaluation in CD-1 mice (IV and PO)
- Format: in vivo
- conditions-used: male, mouse, plasma, PO, 30 mg/kg
I'd be grateful if you could share measured AUC for these entries.
Reply numerically in µM·h, unit not repeated.

Kindly indicate its recorded AUC. Item: C[C@H]1CN(c2cc(S(=O)(=O)NC3(C)CC3)cc3c2n2nc(C(F)(F)F)nc2n3-c2nnc(C(F)F)s2)C[C@H](C)N1 [Compound 065W] 18.3

Kindly indicate its recorded AUC. Item: CCc1nc2n(-c3nnc(C(F)F)s3)c3cc(S(=O)(=O)NC4(C)CC4)cc(N4C[C@H](C)N[C@@H](C)C4)c3n2n1 [Compound 065R] 11.2

###

- target-system: PARG (Homo sapiens, UniProt Q86W56)
- Construct: made in house
- Sequence (Q86W56 whole entry): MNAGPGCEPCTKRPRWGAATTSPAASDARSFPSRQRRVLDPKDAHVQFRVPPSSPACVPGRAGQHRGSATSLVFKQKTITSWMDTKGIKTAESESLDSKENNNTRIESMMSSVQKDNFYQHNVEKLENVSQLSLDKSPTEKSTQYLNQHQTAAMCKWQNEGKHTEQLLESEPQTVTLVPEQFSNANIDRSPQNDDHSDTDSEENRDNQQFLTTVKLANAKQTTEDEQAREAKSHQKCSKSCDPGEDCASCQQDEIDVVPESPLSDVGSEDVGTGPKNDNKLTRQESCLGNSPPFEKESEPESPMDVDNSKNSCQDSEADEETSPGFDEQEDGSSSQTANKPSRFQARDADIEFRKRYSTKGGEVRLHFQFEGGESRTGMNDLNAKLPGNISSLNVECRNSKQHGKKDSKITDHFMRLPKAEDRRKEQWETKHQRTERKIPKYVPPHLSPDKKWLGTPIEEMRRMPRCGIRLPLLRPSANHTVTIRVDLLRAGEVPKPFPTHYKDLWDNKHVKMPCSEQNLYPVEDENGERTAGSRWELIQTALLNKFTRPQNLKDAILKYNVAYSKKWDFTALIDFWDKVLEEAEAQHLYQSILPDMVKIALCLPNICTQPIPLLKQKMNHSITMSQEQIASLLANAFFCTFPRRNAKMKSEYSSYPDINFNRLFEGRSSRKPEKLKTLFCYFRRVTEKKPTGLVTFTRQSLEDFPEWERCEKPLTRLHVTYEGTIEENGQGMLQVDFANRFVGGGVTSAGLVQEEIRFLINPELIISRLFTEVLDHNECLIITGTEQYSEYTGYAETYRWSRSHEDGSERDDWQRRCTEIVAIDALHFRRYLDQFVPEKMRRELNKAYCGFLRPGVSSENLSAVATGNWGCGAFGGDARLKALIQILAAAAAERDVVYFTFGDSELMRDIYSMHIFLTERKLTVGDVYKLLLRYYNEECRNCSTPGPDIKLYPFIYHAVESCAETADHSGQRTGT
- test-description: Enzymatic inhibitory activity against PARG, HTRF assay
- Format: biochemical
- conditions-used: HTRF; PARylated PARP1 protein as substrate; 60 minutes at room temperature; read-out: IC50 against PARG enzyme
assay-endpoint: IC50 (nM)
Reply numerically in nM, unit not repeated.

Kindly indicate its recorded IC50. Item: CN(C)C(=O)N1CCN(c2cc(S(=O)(=O)NC3(CF)CC3)cc3c2n(C)c(=O)n3-c2nnc(C(F)F)s2)CC1 [Compound A032] 2.4

Kindly indicate its recorded IC50. Item: C=CCn1c(=O)n(-c2nnc(C(F)F)s2)c2cc(S(=O)(=O)NC3(C#N)CC3)cc(N3CCN(C(=O)N(C)C)CC3)c21 [Compound A041] 4.4

Kindly indicate its recorded IC50. Item: C=CCn1c(=O)n(-c2nnc(C(F)F)s2)c2cc(S(=O)(=O)NC3(C#N)CC3)cc(N3CCN(C(=O)C(C)(C)NC(=O)OC)CC3)c21 [Compound 076A] 13

Kindly indicate its recorded IC50. Item: CN(C)C(=O)N1CCN(c2cc(S(=O)(=O)NC3(C#N)CC3)cc3c2n(C)c(=O)n3-c2nnc(C(F)F)s2)CC1 [Compound A013] 2.9

Kindly indicate its recorded IC50. Item: C=CCn1c(=O)n(-c2nnc(C(F)F)s2)c2cc(S(=O)(=O)NC3(C#N)CC3)cc(N3CCN(C(=O)C(C)(O)C(F)(F)F)CC3)c21 (stereo not shown) [Compound 073A] 30.6

Kindly indicate its recorded IC50. Item: C=CCn1c(=O)n(-c2nnc(C(F)F)s2)c2cc(S(=O)(=O)NC3(C#N)CC3)cc(N3CCN(C(=O)[C@H](C)CC)CC3)c21 [Compound 067Wl] 19.7

Kindly indicate its recorded IC50. Item: CN(C)C(=O)N1CCN(c2cc(S(=O)(=O)NC3(C#N)CC3)cc3c2ncn3-c2nnc(C(F)F)s2)CC1 [Compound B011] 9.9

Kindly indicate its recorded IC50. Item: CN(C)C(=O)N1CCN(c2cc(S(=O)(=O)NC3(C#N)CC3)cc3c2nc(OC2CC2)n3-c2nnc(C(F)F)s2)CC1 [Compound 057M] 2.8

Kindly indicate its recorded IC50. Item: CC(C)Oc1nc2c(N3C[C@H](C)N[C@@H](C)C3)cc(S(=O)(=O)NC3(C#N)CC3)cc2n1-c1nnc(C(F)F)s1 [Compound 077H] 3

Kindly indicate its recorded IC50. Item: C=CCn1c(=O)n(-c2nnc(C(F)F)s2)c2cc(S(=O)(=O)NC3(C#N)CC3)cc(N3CCN(C(=O)C4CCCC4)CC3)c21 [Compound 067X] 21.1

Kindly indicate its recorded IC50. Item: C=CCn1c(=O)n(-c2nnc(C(F)F)s2)c2cc(S(=O)(=O)NC3(C#N)CC3)cc(N3CCN(C(=O)C(C)C)[C@H](C)C3)c21 [Compound 069D] 23.5

Kindly indicate its recorded IC50. Item: C[C@H]1CN(c2cc(S(=O)(=O)NC3(C)CC3)cc3c2nc(C2CCOC2)n3-c2nnc(C(F)F)s2)C[C@H](C)N1 (stereo partly shown) [Compound 079N] 6.2

Kindly indicate its recorded IC50. Item: C[C@H]1CN(c2cc(S(=O)(=O)NC3(C)CC3)cc3c2nc(C2CNCCO2)n3-c2nnc(C(F)F)s2)C[C@H](C)N1 (stereo partly shown) [Compound 077Y] 10.3

###

I'd be grateful if you could share measured pIC50 for these entries.
- target-system: PARG (Homo sapiens)
- Construct: made in house
- test-description: Enzymatic inhibitory activity against PARG, HTRF assay
- Type: biochemical
- conditions-used: HTRF; PARylated PARP1 protein as substrate; 60 minutes at room temperature; read-out: IC50 against PARG enzyme
In simple prose, pIC50 is minus the logarithm base ten of a concentration in moles per litre.

Kindly indicate its recorded pIC50. Item: C[C@H]1CN(c2cc(S(=O)(=O)NC3(C)CC3)cc3c2nc([C@@H]2CCCO2)n3-c2nnc(C(F)F)s2)C[C@H](C)N1 [Compound 077B2] 8.80

Kindly indicate its recorded pIC50. Item: C=CCn1c(=O)n(-c2nnc(C(F)F)s2)c2cc(S(=O)(=O)NC3(C#N)CC3)cc(N3CCN(S(=O)(=O)C4CC4)CC3)c21 [Compound 067R] 8.47

Kindly indicate its recorded pIC50. Item: C=CCn1c(=O)n(-c2nnc(C(F)F)s2)c2cc(S(=O)(=O)NC3(C#N)CC3)cc(N3CCN(C(=O)NC4CC4)CC3)c21 [Compound A054] 7.41

###

- target-system: PARG (Homo sapiens, UniProt Q86W56)
- Construct: made in house
- test-description: Enzymatic inhibitory activity against PARG, HTRF assay
- Assay type: biochemical
- conditions-used: HTRF; PARylated PARP1 protein as substrate; 60 minutes at room temperature; read-out: IC50 against PARG enzyme
Param label: returns MET when IC50 < 4 nM, returns NOT MET otherwise, including exact equality.

Please let me know if C=CCn1c(=O)n(-c2nnc(C(F)F)s2)c2cc(S(=O)(=O)NC3(C#N)CC3)cc(N3CCN(C(=O)C4(C)CC4)CC3)c21 [Compound 067Y] shows IC50 below 4 nM. NOT MET

Please let me know if C[C@H]1CN(c2cc(S(=O)(=O)NC3(C)CC3)cc3c2ncn3-c2nnc(C(F)F)s2)C[C@H](C)N1 [Compound B004] shows IC50 below 4 nM. NOT MET

Please let me know if C=CCn1c(=O)n(-c2nnc(C(F)F)s2)c2cc(S(=O)(=O)NC3(C#N)CC3)cc(N3CCN(C(=O)[C@@H]4CCCO4)CC3)c21 [Compound 076H1] shows IC50 below 4 nM. NOT MET

Please let me know if CC(C)n1c(=O)n(-c2nnc(C(F)F)s2)c2cc(S(=O)(=O)NC3(C)CC3)cc(N3CCN(C(=O)N(C)C)CC3)c21 [Compound A018] shows IC50 below 4 nM. NOT MET

Please let me know if C[C@H]1CN(c2cc(S(=O)(=O)NC3(C)CC3)cc3c2n2nc(Cl)nc2n3-c2nnc(C(F)F)s2)C[C@H](C)N1 [Compound 065X] shows IC50 below 4 nM. MET

Please let me know if CN(C)C(=O)N1CCN(c2cc(S(=O)(=O)NC3(C)CC3)cc3c2n(C)c(=O)n3-c2nnc(C(F)F)s2)CC1 [Compound A006] shows IC50 below 4 nM. MET

Please let me know if C[C@H]1CN(c2cc(S(=O)(=O)NC3(C)CC3)cn3c(-c4nnc(C(F)F)s4)c([C@H]4CCCO4)nc23)C[C@H](C)N1 [Compound 080B1] shows IC50 below 4 nM. MET

Please let me know if CN(C)C(=O)N1CCC(c2cc(S(=O)(=O)NC3(C#N)CC3)cc3c2ncn3-c2nnc(C(F)F)s2)CC1 [Compound 059C] shows IC50 below 4 nM. NOT MET

Please let me know if C=CCn1c(=O)n(-c2nnc(C(F)F)s2)c2cc(S(=O)(=O)NC3(CF)CC3)cc(N3CCN(C(=O)C(C)C)CC3)c21 [Compound 068A] shows IC50 below 4 nM. MET

Please let me know if [2H]C([2H])([2H])OC(C)(C)C(=O)N1CCN(c2cc(S(=O)(=O)NC3(C#N)CC3)cc3c2n(CC=C)c(=O)n3-c2nnc(C(F)F)s2)CC1 [Compound 067LD] shows IC50 below 4 nM. MET

Please let me know if CN(C)C(=O)N1CCN(c2cc(S(=O)(=O)NC3(C)COC3)cc3c2n(C)c(=O)n3-c2nnc(C(F)F)s2)CC1 [Compound A036] shows IC50 below 4 nM. NOT MET

Please let me know if C=CCn1c(=O)n(-c2nnc(C(F)F)s2)c2cc(S(=O)(=O)NC3(C#N)CC3)cc(N3CCN(C(=O)C(C)(C)O)CC3)c21 [Compound A053] shows IC50 below 4 nM. NOT MET
